experiment: total protein half-life in vivo (active degradation + dilution); higher = more stable protein; settings: wild type E. coli NCM3722; growth: N-lim chemostat; doubling time 12 h
measuredProperty: total protein half-life in vivo (h)
A number alone suffices; assume h.

Data request: Given MLIIETLPLLRQQIRRLRMEGKRVALVPTMGNLHDGHMKLVDEAKARADVVVVSIFVNPMQFDRPEDLARYPRTLQEDCEKLNKRKVDLVFAPSVKEIYPNGTETHTYVDVPGLSTMLEGASRPGHFRGVSTIVSKLFNLVQPDIACFGEKDFQQLALIRKMVADMGFDIEIVGVPIMRAKDGLALSSRNGYLTAEQRKIAPGLYKVLSSIADKLQAGERDLDEIITIAGQELNEKGFRADDIQIRDADTLLEVSETSKRAVILVAAWLGDARLIDNKMVELA , state its recorded total protein half-life in vivo.
Data returned: 8.38

Data request: Given MFTGSIVAIVTPMDEKGNVCRASLKKLIDYHVASGTSAIVSVGTTGESATLNHDEHADVVMMTLDLADGRIPVIAGTGANATAEAISLTQRFNDSGIVGCLTVTPYYNRPSQEGLYQHFKAIAEHTDLPQILYNVPSRTGCDLLPETVGRLAKVKNIIGIKEATGNLTRVNQIKELVSDDFVLLSGDDASALDFMQLGGHGVISVTANVAARDMAQMCKLAAEGHFAEARVINQRLMPLHNKLFVEPNPIPVKWACKELGLVATDTLRLPMTPITDSGRETVRAALKHAGLL [P0A6L2] , state its recorded total protein half-life in vivo.
Data returned: 5.28

====

Each record here notes measured total protein half-life in vivo.
test: total protein half-life in vivo (active degradation + dilution); higher = more stable protein; settings: wild type E. coli NCM3722; growth: C-lim chemostat; doubling time 6 h
A number alone suffices; assume h.

Before answering, review these 4 worked examples.
Data request: Given MSTTWFVGADWLAEHIDDPEIQIIDARMASPGQEDRNVAQEYLNGHIPGAVFFDIEALSDHTSPLPHMLPRPETFAVAMRELGVNQDKHLIVYDEGNLFSAPRAWWMLRTFGVEKVSILGGGLAGWQRDDLLLEEGAVELPEGEFNAAFNPEAVVKVTDVLLASHENTAQIIDARPAARFNAEVDEPRPGLRRGHIPGALNVPWTELVREGELKTTDELDAIFFGRGVSYDKPIIVSCGSGVTAAVVLLALATLDVPNVKLYDGAWSEWGARADLPVEPVK , state its recorded total protein half-life in vivo.
Data returned: 5.74

Data request: Given MKVGFIGLGIMGKPMSKNLLKAGYSLVVADRNPEAIADVIAAGAETASTAKAIAEQCDVIITMLPNSPHVKEVALGENGIIEGAKPGTVLIDMSSIAPLASREISEALKAKGIDMLDAPVSGGEPKAIDGTLSVMVGGDKAIFDKYYDLMKAMAGSVVHTGEIGAGNVTKLANQVIVALNIAAMSEALTLATKAGVNPDLVYQAIRGGLAGSTVLDAKAPMVMDRNFKPGFRIDLHIKDLANALDTSHGVGAQLPLTAAVMEMMQALRADGLGTADHSALACYYEKLAKVEVTR [P0ABQ2] , state its recorded total protein half-life in vivo.
Data returned: 5.47

Data request: Given MEQRHITGKSHWYHETQSSTTEYDVLPLVPEAAKVSDPFLLDVILEKETLAPFLSWLDPARVLAVDLFPDQLTVTRSQTFTAYERLSTALTVAQVCGVQRLCNYYSARLTPLPGPDSTRESNHRLAQITQYARQLASSPSIIDNRSRQHLNDVGLTAWDCVIISQIIGFIGFQARTIATFQAYLGHPVRWLPGLEIQNYADASLFADESLRWRSSYEVEKLPEEHTKSSTAELCQLAEILSLHPISLSLLEKLLNSTRGNTQPDNQLAALLCARINGSPACFATCMDSSNEYKKISTLMRKGENEINQWADRHSVERATVQAIQWLTRAPDRFSAAQFSPLLEHEKSSTQIINLLVWSGLCGWINRLKIALGETY , state its recorded total protein half-life in vivo.
Data returned: 1.21

Data request: Given MDHRLLEIIACPVCNGKLWYNQEKQELICKLDNLAFPLRDGIPVLLETEARVLTADESKS [P0AAZ7] , state its recorded total protein half-life in vivo.
Data returned: 4.73

Continuing:
Data request: Given MKVKVLSLLVPALLVAGAANAAEVYNKDGNKLDLYGKVDGLHYFSDNKDVDGDQTYMRLGFKGETQVTDQLTGYGQWEYQIQGNSAENENNSWTRVAFAGLKFQDVGSFDYGRNYGVVYDVTSWTDVLPEFGGDTYGSDNFMQQRGNGFATYRNTDFFGLVDGLNFAVQYQGKNGNPSGEGFTSGVTNNGRDALRQNGDGVGGSITYDYEGFGIGGAISSSKRTDAQNTAAYIGNGDRAETYTGGLKYDANNIYLAAQYTQTYNATRVGSLGWANKAQNFEAVAQYQFDFGLRPSLAYLQSKGKNLGRGYDDEDILKYVDVGATYYFNKNMSTYVDYKINLLDDNQFTRDAGINTDNIVALGLVYQF , state its recorded total protein half-life in vivo.
Data returned: 6.64

The measurements presented in this section are drawn from the supplement of paper PMC11246515.
